The measured values listed here are drawn from patent US20240010722A1.

# measured_on: T1, human MAdCAM (human, UniProt Q13477 19-317, limits assumed)
# T1 construct: also called huMAdCAM; human MAdCAM-1
# T1 sequence (looked up): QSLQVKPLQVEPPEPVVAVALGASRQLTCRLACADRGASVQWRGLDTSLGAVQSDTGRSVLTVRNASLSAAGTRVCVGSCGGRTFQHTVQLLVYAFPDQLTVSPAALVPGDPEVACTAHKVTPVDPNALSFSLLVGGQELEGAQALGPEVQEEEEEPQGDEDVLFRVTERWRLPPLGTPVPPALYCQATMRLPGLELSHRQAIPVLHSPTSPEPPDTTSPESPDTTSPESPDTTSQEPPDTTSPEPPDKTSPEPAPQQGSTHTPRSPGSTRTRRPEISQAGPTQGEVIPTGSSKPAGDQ
# experimental_protocol: BLI (Octet), binder on anti-human Fc tips
# Kd values compiled below
endpoint_name: Kd (nM)

{"binder": "MIAB122 (antibody, V domains shown, tested with human Fc) VH: EVQLLESGGGLVQPGGSLRLSCAASGFIFDDYAMHWVRQAPGKGLEWVASITSSSAFIDYADSVKGRFTISRDNSKNTLYLQMNSLRAEDTAVYYCARERVDWFSYFDLWGQGTLVTVSS VL: EIVMTQSPATLSVSPGERATLSCRACPSVSNNYLVWYQQKPGQAPRLLIYDASTRATGIPARFSGSGSGTEFTLTISSLQSEDFAVYYCQQYSHWPPTFGQGTKVEIK", "endpoint_name": "Kd", "recorded_value": 48.2}
{"binder": "MIAB208 (antibody, V domains shown, tested with human Fc) VH: EVQLLESGGGLVQPGGSLRLSCAASGFTFDDYAMHWVRQAPGKGLEWVASITSSSAFIDYADSVKGRFTISRDNSKNTLYLQMNSLRAEDTAVYYCARERVDWNSYFDLWGQGTLVTVSS VL: EIVMTQSPATLSVSPGERATLSCRASQSVYSNLAWYQQKPGQAPRLLIYDASTRATGIPARFSGSGSGTEFTLTISSLQSEDFAVYYCQQYHIWPPTFGQGTKVEIK", "endpoint_name": "Kd", "recorded_value": 20.2}
{"binder": "MIAB177 (antibody, V domains shown, tested with human Fc; also called MIAB177-001) VH: EVQLLESGGGLVQPGGSLRLSCAASGFTFSDFWMHWVRQAPGKGLEWVSAISGSGGSTYYADSVKGRFTISRDNSKNTLYLQMNSLRAEDTAVYYCARDRPYYYYMDVWGKGTTVTVSS VL: DIQMTQSPSSLSASVGDRVTITCRASQSVSRSLAWYQQKPGKAPKLLIYAASSLQSGVPSRFSGSGSGTDFTLTISSLQPEDFATYYCQQYKSYPVTFGQGTKVEIK", "endpoint_name": "Kd", "recorded_value": 218}
